assayed system: KAT2B (Homo sapiens, UniProt Q92831)
Sequence (Q92831 492-658): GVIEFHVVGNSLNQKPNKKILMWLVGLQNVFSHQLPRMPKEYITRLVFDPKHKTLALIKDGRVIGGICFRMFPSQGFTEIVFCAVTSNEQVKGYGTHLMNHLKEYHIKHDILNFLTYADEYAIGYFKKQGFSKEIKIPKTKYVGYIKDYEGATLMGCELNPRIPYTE
parameter measured: IC50

For orientation, consider the following solved cases.
compound: CC1=NN(c2cccc(C(=O)O)c2)C(=O)/C1=C\c1ccc[nH]1
IC50: > 200 µM
--
compound: CC1=NN(c2ccc(C(=O)O)cc2)C(=O)/C1=C\c1cc[nH]c1
IC50: > 200 µM
--
compound: CC1=NN(c2ccc(C(=O)O)cc2)C(=O)/C1=C\c1ccc(-c2cc(C)c(C)cc2[N+](=O)[O-])o1 [VII (C646), reference compound]
IC50: > 200 µM
--
compound: CCCCCCCCCCCCCCCc1cccc(O)c1C(=O)O [I (AA), anacardic acid, reference compound]
IC50: 39.7 µM
--
compound: CC1=NN(c2ccc(C(=O)NCc3ccccc3)cc2)C(=O)/C1=C\c1ccc[nH]1
IC50: > 200 µM
--
compound: CC1=NN(c2ccc(C(=O)O)cc2)C(=O)/C1=C\c1c[nH]cn1
IC50: > 200 µM

Identify IC50 associated with the compound "CC1=NN(c2ccc(C(=O)O)cc2)C(=O)/C1=C\c1cc(C(=O)c2ccccc2[N+](=O)[O-])c[nH]1"
> 200 µM

Give IC50 for the following compound: CCCCCCCc1ccc(CCc2cccc(O)c2C(=O)O)cc1 [III (MG149), reference compound]
> 200 µM
